EXPERIMENTAL SYSTEM: mouse Nat2 (Mus musculus)
Construct: The mouse Nat2 open-reading frame [22] was sub-cloned into pET28b(+); hexa-histidine tag (His-tag, from pET28b(+)) (N, cleaved yes); made in house; host or cells: Escherichia coli Rosetta(DE3)pLysS
Sequence (P50295 1-290): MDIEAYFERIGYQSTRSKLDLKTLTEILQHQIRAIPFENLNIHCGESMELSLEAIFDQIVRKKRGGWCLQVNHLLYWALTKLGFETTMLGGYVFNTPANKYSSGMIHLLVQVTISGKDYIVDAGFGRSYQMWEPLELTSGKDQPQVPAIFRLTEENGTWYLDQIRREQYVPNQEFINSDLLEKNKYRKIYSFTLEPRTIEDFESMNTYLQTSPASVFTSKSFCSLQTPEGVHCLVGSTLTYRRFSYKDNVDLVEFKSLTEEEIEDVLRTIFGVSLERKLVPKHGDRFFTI
ASSAY TEXT: Inhibition of mouse Nat2 acetylation of PABA (colorimetric DMAB assay)
Type: biochemical
REPORTED CONDITIONS: steroidogenic compounds; inhibitor 1–500 μM; recombinant mouse Nat2 3 ng, PABA 75 μM, AcCoA 400 μM, 37 °C; read-out: IC50
pIC50: −log10 of the molar value.
OBSERVED PROPERTY: pIC50

C[C@]12CC[C@H]3[C@@H](CCC4=CC(=O)CC[C@@]43C)[C@@H]1CC[C@@H]2O | < 3.30
C[C@]12CCC(=O)C=C1CC[C@@H]1[C@@H]2CC[C@]2(C)C(=O)CC[C@@H]12 | < 3.30
CC(=O)[C@@]1(O)CC[C@H]2[C@@H]3CCC4=CC(=O)CC[C@]4(C)[C@H]3CC[C@@]21C [17-Hydroxy-progesterone] | < 3.30
CC(=O)[C@H]1CC[C@H]2[C@@H]3CC=C4C[C@@H](O)CC[C@]4(C)[C@H]3CC[C@]12C | < 4.00
C[C@]12CC[C@@H]3c4ccc(O)cc4CC[C@H]3[C@@H]1CCC2=O | 3.43
C[C@]12CC[C@@H]3c4ccc(O)cc4CC[C@H]3[C@@H]1CC[C@@H]2O [17-Hydroxy-β-estradiol] | 4.26
